src = PubChem BioAssay

Kindly supply the reported composite z-score values for the records listed here.
- Assay system: Alpha-bungarotoxin (Bungarus multicinctus) (UniProt P60615)
- Sequence (P60615 whole entry, looked up): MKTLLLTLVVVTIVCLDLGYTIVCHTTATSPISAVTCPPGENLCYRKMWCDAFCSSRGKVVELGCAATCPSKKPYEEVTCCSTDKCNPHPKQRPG
- Experiment: compounds binding labelled alpha-BTX control protein – biochemical, small-molecule microarray, Alexa647 label, 635/667 nm fluorescence, artefact control for SMM control protein annotation, profiling panel (AID 1117)
- Stated conditions: alpha-BTX-A647 binding fluorescence, higher = more signal
Please give only the number in your answer, with no unit.

For record "CN(C)CCCCNC(=O)[C@@H]1C[C@@H]2C(=O)N[C@@H](CCCCN)C(=O)N2[C@@H]1c1cccc(OCCO)c1" the listed composite z-score is -0.863

For record "COCCOC(=O)N1C(=O)[C@@]2(c3cc(C#CC4=CCCCC4)ccc31)[C@H](C(=O)N1CCN(c3ncccn3)CC1)[C@H]1C(=O)O[C@H](c3ccccc3)[C@H](c3ccccc3)N1[C@@H]2c1ccc(OCCO)cc1" the listed composite z-score is 0.229

For record "CC(C)N1C(=O)c2ccccc2[C@](C)(C(=O)NCCCN(C)C)[C@@H]1c1ccc(CO)cc1" the listed composite z-score is 1.28

For record "O=C1O[C@H](c2ccccc2)[C@H](c2ccccc2)N2[C@H]1[C@@H](C(=O)NC[C@H](O)c1ccccc1)[C@]1(C(=O)Nc3ccc(C#CC4(O)CCCCCC4)cc31)[C@H]2c1ccccc1OCCO" the listed composite z-score is 0.837

For record "COCCOC(=O)N1C(=O)[C@@]2(c3cc(C#CC4(O)CCCCCC4)ccc31)[C@H](c1ccc(O)cc1)N1[C@H](c3ccccc3)[C@H](c3ccccc3)OC(=O)[C@H]1[C@@H]2C(=O)N1CCc2cc(OC)c(OC)cc2C1" the listed composite z-score is -0.678

For record "C=CCN1Cc2ccccc2C[C@]2(N=C(c3ccc(OCCCO)cc3)O[C@@H]2c2ccccc2)C1=O" the listed composite z-score is 1.03

For record "O=C(NCc1ccccc1)[C@@H]1c2ccccc2C(=O)N(Cc2cc(F)cc(C(F)(F)F)c2)[C@H]1c1ccc(CO)cc1" the listed composite z-score is 0.258

For record COc1cc2c(cc1O)C(c1ccc(CN3CCCC3)cc1)N(Cc1sc3ccccc3c1Cl)CC2 (stereo not drawn) the listed composite z-score is 0.518

For record CC1CC/C=C\[C@H]2OC34C=CCN(c5ccc6ccccc6c5)C(=O)[C@H]3N(CCCCCO)C(=O)[C@@H]4C2C(=O)O1 (stereo partly drawn) the listed composite z-score is -1.28

For record CC(c1ccccc1)C(O)C1C=CC2C(=O)N(Cc3ccccc3)C(=O)C2N1n1cnnc1 (stereo not drawn) the listed composite z-score is 0.512

For record "NC(=O)NCC#Cc1ccc2c(c1)[C@]1(C(=O)N2)[C@H](c2ccccc2OCCO)N2[C@H](c3ccccc3)[C@H](c3ccccc3)OC(=O)[C@H]2[C@@H]1C(=O)N1CCCCCCC1" the listed composite z-score is 3.37

For record "COC(=O)C(CC#Cc1ccc2c(c1)[C@]1(C(=O)N2)[C@H](C(=O)N2CCCCCCC2)[C@H]2C(=O)O[C@H](c3ccccc3)[C@H](c3ccccc3)N2[C@@H]1c1ccccc1OCCO)C(=O)OC" the listed composite z-score is 4.45

For record O=C1C2C=CC(C(O)C3CC=CCC3)N(n3cnnc3)C2C(=O)N1Cc1ccccc1 (stereo not drawn) the listed composite z-score is 0.365
